- test-system: T1, CysR∼CTLD3-GFP fragment of DEC205 (wild type) (human, UniProt O60449 28-627)
- T1 construct: signal peptide in the construct; DEC205 (CD205, Ly75), human, CysR∼CTLD3 fragment, residues M1-S627; Used for flow cytometry; also called CysR-CTLD3 fragment; not shown: GFP, C-terminal, kept
- T1 sequence (looked up): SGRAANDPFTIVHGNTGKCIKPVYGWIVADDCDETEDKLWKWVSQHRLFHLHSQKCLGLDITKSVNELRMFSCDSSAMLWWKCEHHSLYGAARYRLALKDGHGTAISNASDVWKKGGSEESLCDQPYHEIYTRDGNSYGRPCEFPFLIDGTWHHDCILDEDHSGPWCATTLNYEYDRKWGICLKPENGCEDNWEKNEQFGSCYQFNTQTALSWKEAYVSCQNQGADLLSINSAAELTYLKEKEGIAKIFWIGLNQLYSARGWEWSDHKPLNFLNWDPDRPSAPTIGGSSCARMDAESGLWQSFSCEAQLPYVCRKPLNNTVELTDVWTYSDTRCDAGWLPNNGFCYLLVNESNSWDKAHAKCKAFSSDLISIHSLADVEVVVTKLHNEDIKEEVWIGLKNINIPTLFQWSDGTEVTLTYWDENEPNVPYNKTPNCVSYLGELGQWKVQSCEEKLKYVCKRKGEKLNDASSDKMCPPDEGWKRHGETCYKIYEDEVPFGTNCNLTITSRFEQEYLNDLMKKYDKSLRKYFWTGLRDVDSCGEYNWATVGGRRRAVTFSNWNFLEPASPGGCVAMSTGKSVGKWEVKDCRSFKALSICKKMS
- test-method-notes: flow cytometry on cells; inhibition assay: ActD-induced Jurkat cells in PBS pH 6.0 incubated with CysR∼CTLD3-GFP with or without keratin fragments (about 20 μg/ml); the pair meant is keratin fragment and CysR∼CTLD3-GFP
- conditions-used: both partners purified
endpoint-label: binding result

Some binders with known binding result results, for comparison:
>  <binder>
Human keratin 10 C-terminal tail fragment K10-T1 (residue G461-Y584) (domain or fragment, UniProt P13645 461-584, looked up, keratin 10 (K10), human, C-terminal tail, residues G461-Y584; Expressed without a SUMO tag; source: E. coli BL21(DE3), pET28a, purified (Ni-NTA)) GGGRGGGSFGGGYGGGSSGGGSSGGGHGGGHGGSSGGGYGGGSSGGGSSGGGYGGGSSSGGHGGSSSGGYGGGSSGGGGGGYGGGSSGGGSSSGGGYGGGSSSGGHKSSSSGSVGESSSKGPRY

>  <binding result>
binds

$$$$
>  <binder>
GSSGGGYGGG (keratin 10 (K10), human, tail, residues G507-G516; source: synthetic peptide) [chemically synthesized peptide K10-T11]

>  <binding result>
binds

$$$$
>  <binder>
GSSGGGHGGG (keratin 10 (K10), human, tail, residues G481-G490; source: synthetic peptide) [chemically synthesized peptide K10-T10]

>  <binding result>
binds

$$$$
>  <binder>
ISGGGSRGGG (keratin 1 (K1), human, tail, residues I512-G521; Expressed and purified for ELISA and flow cytometry; source: E. coli BL21(DE3), pET28a, purified (Ni-NTA)) [K1-T2 (I512-G521: ISGGGSRGGG), SUMO fusion]

>  <binding result>
binds

$$$$

# evaluate next
// query Quick one: binding result for GSGGGSYGSG (Expressed and purified for ELISA and flow cytometry; source: E. coli BL21(DE3), pET28a, purified (Ni-NTA)) [K1-T3 (G532-G541 and G560-G569: GSGGGSYGSG), SUMO fusion] ?
// result binds
